Measured values drawn from patent US9802899B2 for this set.

# protocol-details: Determination of the log P values by HPLC (formic acid method)
# Type: physicochemical
# assay-setup: reversed-phase column (C 18), acidic range (pH 3.4), 55° C.
measured-endpoint: log P

P = O=C(Nc1ccn(-c2c(F)cccc2F)n1)c1ccc(F)cc1C(F)(F)F
Q = CS(=O)(=O)c1ccccc1-n1ccc(NC(=O)c2c(F)cccc2F)n1
Problem: Of P and Q , whose reported log P is numerically smaller? Which one? Tell me its label.
Result: Q

---

# protocol-details: Determination of the log P values by HPLC (formic acid method)
# Assay type: physicochemical
# assay-setup: reversed-phase column (C 18), acidic range (pH 3.4), 55° C.
measured-endpoint: log P

1. O=C(Nc1ccn(-c2c(F)cccc2F)n1)c1ccccc1Cl	2.55
2. Cc1cc(NC(=O)c2cccnc2Br)nn1-c1ccc(F)cc1F	2.89
3. O=C(Nc1ccn(-c2c(F)cccc2F)n1)c1ccccc1SC(F)(F)F	3.15
4. O=C(Nc1ccn(-c2c(F)cccc2F)n1)c1ccnn1C(F)F	2.40

I = COc1ccccc1-n1ccc(NC(=O)c2ccccc2C(F)(F)F)n1
II = CCc1ncccc1C(=O)Nc1ccn(-c2ncc(F)cc2F)n1
Problem: Of I and II , whose reported log P is numerically smaller? Which one? Tell me its label.
Result: II

1 = O=C(Nc1ccn(-c2nccnc2F)n1)c1ccccc1Br
2 = C#CCN(C(=O)c1ccccc1Cl)c1ccn(-c2ccccc2Cl)n1
Problem: Of 1 and 2 , whose reported log P is numerically smaller? Which one? Tell me its label.
Result: 1
(1: 2.09, 2: 3.25)

---

# protocol-details: Determination of the log P values by HPLC (formic acid method)
# Type: physicochemical
# assay-setup: reversed-phase column (C 18), acidic range (pH 3.4), 55° C.
measured-endpoint: log P

1. O=C(Nc1ccn(-c2cccc(Cl)c2F)n1)c1c(F)cccc1F	3.12
2. O=C(Nc1ccn(-c2ncc(F)cc2F)n1)c1ncncc1Cl	1.92
3. O=C(Nc1ccn(-c2ncccc2Cl)n1)c1c(F)cccc1F	2.12
4. O=C(Nc1ccn(-c2ncc(F)cc2F)n1)c1sccc1Cl	2.61
5. N#Cc1c(F)cccc1-n1ccc(NC(=O)c2c(F)cccc2F)n1	2.45

---

# protocol-details: Determination of the log P values by HPLC (formic acid method)
# Assay type: physicochemical
# assay-setup: reversed-phase column (C 18), acidic range (pH 3.4), 55° C.
measured-endpoint: log P

1) Cc1nn(C(F)F)c(C(=O)Nc2ccn(-c3ncc(F)cc3F)n2)c1F	2.65
2) O=C(c1ccccc1Cl)N(CC1CC1)c1ccn(-c2ccccc2Cl)n1	3.85
3) O=C(Nc1ccn(-c2cc(F)cnc2F)n1)c1ccccc1Cl	2.59
4) Cc1ccsc1C(=O)Nc1ccn(-c2ccccc2Br)n1	3.16
5) Cc1cn(-c2ccccc2Cl)nc1NC(=O)c1c(F)cccc1F	2.70
6) O=C(Nc1cnn(-c2ncc(F)cc2F)n1)c1c(F)cccc1C(F)(F)F	2.51
7) O=C(c1ccccc1C(F)(F)F)N(CC(F)(F)F)c1ccn(-c2c(F)cccc2F)n1	3.59
8) CC1=C(C(=O)Nc2ccn(-c3ncc(F)cc3F)n2)SCCO1	2.17
9) O=C(c1ccccc1C(F)(F)F)N(CC1CC1)c1ccn(-c2c(F)cccc2F)n1	3.68
10) Cn1nc(C(F)(F)F)c(Br)c1C(=O)Nc1ccn(-c2ncc(F)cc2F)n1	3.19
11) O=C(Nc1ccn(-c2ncccc2Br)n1)c1ccccc1Br	2.31
12) O=C(Nc1cnn(-c2ccc(C(F)(F)F)cn2)n1)c1ccccc1I	3.04

---

# protocol-details: Determination of the log P values by HPLC (formic acid method)
# Type: physicochemical
# assay-setup: reversed-phase column (C 18), acidic range (pH 3.4), 55° C.
measured-endpoint: log P

Examples with their reported log P follow.
1. O=C(Nc1ccn(-c2ncc(F)cc2F)n1)c1c(F)cccc1C(F)(F)F	2.57
2. O=C(Nc1ccn(-c2c(F)cccc2F)n1)c1cccc(Cl)c1Cl	2.93
3. O=C(Nc1ccn(-c2ncccc2C(F)(F)F)n1)c1ccccc1Cl	2.57
4. CCc1nccnc1C(=O)Nc1ccn(-c2ncc(F)cc2F)n1	2.42
5. O=C(Nc1ccn(-c2c(F)cccc2F)n1)c1cc(Cl)ccc1C(F)(F)F	3.11

I = Cc1cn(-c2ccccc2Cl)nc1NC(=O)c1ccccc1C(F)(F)F
II = Cn1cncc1C(=O)Nc1ccn(-c2ncc(F)cc2F)n1
Problem: Which one would you say has the larger log P value: I , or II ? Which one? Tell me its label.
Result: I
(I: 3.01, II: 0.70)

---

# protocol-details: Determination of the log P values by HPLC (formic acid method)
# Type: physicochemical
# assay-setup: reversed-phase column (C 18), acidic range (pH 3.4), 55° C.
measured-endpoint: log P

Examples with their reported log P follow.
1. O=C(Nc1ccn(-c2ncc(Cl)cc2Cl)n1)c1ccccc1Cl	2.91
2. O=C(Nc1ccn(-c2c(F)cccc2F)n1)c1ccccc1OC(F)F	2.74
3. O=C(Nc1ccn(-c2ncc(F)cc2F)n1)c1ccccc1C1CC1	2.68
4. O=C(Nc1ccn(-c2cc(F)cnc2F)n1)c1ccccc1C(F)(F)F	2.72
5. Cc1nnsc1C(=O)Nc1ccn(-c2c(F)cccc2F)n1	2.15
6. O=C(Nc1ccn(-c2ncc(F)cc2F)n1)c1ccccc1Br	2.36

P = O=C(Nc1ccn(-c2ccccc2C(F)(F)F)n1)c1ccnn1C(F)F
Q = Cc1nn(C)cc1C(=O)Nc1ccn(-c2ncc(F)cc2F)n1
Problem: Which one would you say has the larger log P value: P , or Q ? Which one? Tell me its label.
Result: P
(P: 3.05, Q: 1.54)

---

# protocol-details: Determination of the log P values by HPLC (formic acid method)
# Format: physicochemical
# assay-setup: reversed-phase column (C 18), acidic range (pH 3.4), 55° C.
measured-endpoint: log P

1. CCc1nn(C)c(C(=O)Nc2ccn(-c3ncc(F)cc3F)n2)c1Cl [Compound I-1-534]	2.98
2. O=C(Nc1cnn(-c2ccccc2Br)n1)c1ccccc1I [Compound I-2-33]	3.06
3. Cc1cccc(C)c1C(=O)Nc1ccn(-c2ccccc2Cl)n1 [Compound I-1-353]	2.97

---

# protocol-details: Determination of the log P values by HPLC (formic acid method)
# Type: physicochemical
# assay-setup: reversed-phase column (C 18), acidic range (pH 3.4), 55° C.
measured-endpoint: log P

Examples with their reported log P follow.
1. O=C(Nc1ccn(-c2ncc(F)cc2F)n1)c1c(F)cccc1I	2.56
2. Cn1nc(C(F)(F)C(F)(F)F)c(C(F)(F)F)c1C(=O)Nc1ccn(-c2c(F)cccc2F)n1	3.84
3. Cc1cc(NC(=O)c2ccccc2C(F)(F)F)nn1-c1ccc(F)cc1F	3.78
4. CSc1ncccc1C(=O)Nc1ccn(-c2c(F)cccc2F)n1	2.38
5. O=C(Nc1ccn(-c2ncc(F)cc2F)n1)c1ccccc1O	2.48
6. CCn1ncc(Cl)c1C(=O)Nc1ccn(-c2c(F)cccc2F)n1	2.61

P = CCCc1c(Cl)c(C(=O)Nc2ccn(-c3c(F)cccc3F)n2)nn1C
Q = O=C(Nc1ccn(-c2ncc(F)cn2)n1)c1ccccc1I
Problem: Which one would you say has the larger log P value: P , or Q ? Which one? Tell me its label.
Result: P

1 = Cc1nn(-c2ccccc2Cl)nc1NC(=O)c1ccccc1C(F)(F)F
2 = O=C(Nc1ccn(-c2ncc(F)cc2F)n1)c1cncnc1C(F)(F)F
Problem: Which one would you say has the larger log P value: 1 , or 2 ? Which one? Tell me its label.
Result: 1

---

# protocol-details: Determination of the log P values by HPLC (formic acid method)
# Assay type: physicochemical
# assay-setup: reversed-phase HPLC column (C 18), reversed-phase column (C 18), acidic range (pH 3.4), 55° C.
measured-endpoint: chromatographic logP

1) Nc1ccn(-c2cccc(Cl)c2F)n1	1.9
2) Nc1ccn(-c2ncc(F)cc2Cl)n1	0.98
3) Nc1ccn(-c2c(Cl)cccc2Cl)n1	1.47
4) Cc1nc(F)c(-n2ccc(N)n2)cc1F	1.5
5) CCOc1cccc(Cl)c1-n1ccc(N)n1	2.13
6) Nc1nn(-c2ccccc2Cl)cc1Cl	2.14
7) O=C(Nc1nn(-c2ccccc2Cl)cc1I)c1ccccc1C(F)(F)F	3.16
8) N#Cc1nccnc1-n1ccc(NC(=O)c2ccccc2C(F)(F)F)n1	2.47
9) Cc1ccc(-n2ccc(N)n2)c(Cl)c1	1.85
10) O=C(Nc1ccn(-c2c(F)cc(F)c[n+]2[O-])n1)c1ccccc1C(F)(F)F	1.69

P = Nc1nn(-c2ccccc2Cl)c2ccccc12
Q = Nc1cnn(-c2ccc(C(F)(F)F)cn2)n1
Problem: Of P and Q , whose reported chromatographic logP is numerically smaller? Which one? Tell me its label.
Result: Q
(Q: 1.53, P: 2.32)

---

# protocol-details: Determination of the log P values by HPLC (formic acid method)
# Type: physicochemical
# assay-setup: reversed-phase column (C 18), acidic range (pH 3.4), 55° C.
measured-endpoint: log P

1) Cn1nc(C(F)(F)F)c(C#N)c1C(=O)Nc1ccn(-c2c(F)cccc2F)n1	2.98
2) Cc1onc(C(=O)Nc2ccn(-c3c(F)cccc3F)n2)c1C	2.76

1 = O=C(Nc1ccn(-c2ccccc2Cl)n1)c1ccsc1I
2 = CS(=O)(=O)c1ccccc1-n1ccc(NC(=O)c2ccccc2C(F)(F)F)n1
Problem: Which one would you say has the larger log P value: 1 , or 2 ? Which one? Tell me its label.
Result: 1
(1: 3.05, 2: 2.13)
